// data source = patent US20190262291A1

- TEST_SUMMARY: NOAEL for HMB oral ingestion in rats (Baxter et al.)
- Assay type: in vivo, rat
- CONDITION_SUMMARY: male, rat, in vivo, oral; men
METRIC: estimated human equivalent dose of rat NOAEL (mg/kg)
Reply numerically in mg/kg, unit not repeated.

Prompt: Which measured estimated human equivalent dose of rat NOAEL value corresponds to CC(C)(O)CC(=O)O [HMB, β-hydroxy β-methylbutyrate] ?
Completion: 558

----------
- TEST_SUMMARY: NOAEL for HMB oral ingestion in rats (Baxter et al.)
- Format: in vivo, rat
- CONDITION_SUMMARY: female, rat, in vivo, oral; women
METRIC: estimated human equivalent dose of rat NOAEL (mg/kg)
The reply should contain only the number, in mg/kg.

Prompt: Requested read-out: estimated human equivalent dose of rat NOAEL. Entry: CC(C)(O)CC(=O)O [HMB, β-hydroxy β-methylbutyrate]
Completion: 665
